Test system: ATS95
Test: qHTS profiling for inhibitors of Plasmodium falciparum proliferation (AID 504749); also: nearly all actives have a fitted effect of over 60% in size
Conditions: P. falciparum in erythrocytes, SYBR Green DNA, 72 h; series mostly up to 28.7 µM
Inconclusive results are not listed. The source made the active and inactive calls. Calls follow the shape of the dose curve; as a rule, active = well fitted inhibition curve with a large enough effect; inconclusive = small, poorly fitted or top-dose-only effect; inactive = flat fitted curve, though single readings scatter.
Give one outcome, nothing more. List: active, inactive

compound	qualitativeLabel
COc1cccc2c1C(=O)c1c(O)c3c(c(O)c1C2=O)C[C@@](O)(C(=O)CO)C[C@@H]3O[C@H]1C[C@H](N)[C@H](OC2CCCCO2)[C@H](C)O1 (stereo not given in full)	active

Q. State the result this test recorded for CCCCCCCCCCCC(CC1OC(=O)C1CCCCCC)OC(=O)C(CC(C)C)NC=O (stereo not given) .
A. active

Q. Each compound tested received a call. Report the one for COc1ccc2c(c1OC)C(=O)OC2[C@H]1c2c(cc3c(c2OC)OCO3)CCN1C (stereo not given in full) .
A. inactive

Q. I'd appreciate the recorded outcome for CCC(C(=O)O)C1CCC(C)C(C(C)C(O)C(C)C(=O)C(CC)C2OC3(C=CC(O)[C@@]4(CC[C@](C)(C5CC[C@@](O)(CC)C(C)O5)O4)O3)C(C)CC2C)O1 (stereo not given in full) from this test.
A. active

Q. Write down the call the test reported for this compound. Item: `Nc1nc2c(c(=O)[nH]1)N(C=O)[C@H](CNc1ccc(C(=O)N[C@@H](CCC(=O)O)C(=O)O)cc1)CN2`
A. inactive

Measured values drawn from PubChem BioAssay (NCATS) for this set.
